Listing: SPOT peptide array binding signal intensity of selected binders
TARGET UNDER TEST: SpLsb4
PROTOCOL TEXT: SPOT peptide array binding signal intensity (averaged, normalized) (arbitrary units (background-subtracted, floor 0; scale differs between SH3 domains)); higher = stronger binding of the SH3 domain to the peptide
Lab note: record just the number, no unit beside it.

> print(dat)
             binder  data.value
 1  STPQTMRQAPKRPDA         384
 2  KFIPSRPAPKPPSSA         865
 3  EEEEEHPPLPARRKS        7640
 4  NTMKKRPAPPSLPSL         788
 5  YLTRPLPSTPNEDSR        2190
 6  ANNQGPPNLPARDKS        6520
 7  TKRKRPARLIFYDSK         205
 8  FFRRSELYLPNSSKA           7
 9  WTQRRGPLVVYAEDN          31
10  RRSKSLPITPKSIFN        64.5

query: Which SPOT peptide array binding signal intensity value belongs to MAMRPIPPLPTESEY ?
result: 2610

query: Which SPOT peptide array binding signal intensity value belongs to IKKRNKIRLPSGSPE ?
result: 104

query: Which SPOT peptide array binding signal intensity value belongs to MTKTPETSPPKRPMG ?
result: 285

query: Which SPOT peptide array binding signal intensity value belongs to MFLISPPASPPPEFD ?
result: 49

query: Which SPOT peptide array binding signal intensity value belongs to LLLLFVPDSPYDPAI ?
result: 2
